Values from ChEMBL document CHEMBL1157555

Target: UniProt P0DMS8
Sequence (P0DMS8 whole entry): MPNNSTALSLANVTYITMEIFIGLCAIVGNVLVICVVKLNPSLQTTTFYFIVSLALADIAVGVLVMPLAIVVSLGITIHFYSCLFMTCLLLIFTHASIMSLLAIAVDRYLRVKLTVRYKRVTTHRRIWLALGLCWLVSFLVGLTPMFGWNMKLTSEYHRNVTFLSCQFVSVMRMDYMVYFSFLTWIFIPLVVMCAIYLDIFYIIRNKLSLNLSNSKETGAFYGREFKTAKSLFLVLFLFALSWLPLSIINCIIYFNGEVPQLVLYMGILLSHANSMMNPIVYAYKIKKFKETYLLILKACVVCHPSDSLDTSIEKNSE
Test: Displacement of [3H]NECA from human recombinant adenosine A3 receptor expressed in human HeLa cells at 1 uM by microplate beta scintillation counter
Assay type: cell-based
EXPERIMENTAL ENDPOINT: Activity (%)

[a] CCCn1c(=O)c2[nH]c(Cc3ccccc3)nc2n(CC2CCCO2)c1=O (stereo not drawn)
[b] CCCn1c(=O)c2[nH]c(Cc3ccccc3)nc2n(CCS(=O)(=O)CC)c1=O
[c] CCn1c(=O)c2[nH]c(Cc3c(F)cccc3F)nc2n(Cc2ccccc2)c1=O
Rank the compounds listed above in increasing order of Activity. Provide the labels, sequenced as the question asks.
c, a, b
